B1: library; a variant is named by its letters at N, in order (parent)
chain: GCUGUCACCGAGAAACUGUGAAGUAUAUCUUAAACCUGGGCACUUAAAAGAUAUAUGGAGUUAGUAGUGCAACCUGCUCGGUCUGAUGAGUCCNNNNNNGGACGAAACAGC

variants of: B1; assay: normalized RNA/DNA level without ligand (relative to sTRSVctl = 100) (log10 (% of sTRSVctl)); HEK293T; ligand: cyclic di-GMP (c-di-GMP-II aptamer); higher = less ribozyme self-cleavage, higher mRNA level; conditions: reporter: mCherry (pCS4076), ligand present: no
For each of the variants below, state its normalized RNA/DNA level without ligand (log10).
// print number alone

Notebook: `GUAACC` , normalized RNA/DNA level without ligand (log10) read as 1.77

Form field normalized RNA/DNA level without ligand (log10), entry `AGUGUC` : 1.62

Query `GCGCUC` yields normalized RNA/DNA level without ligand (log10) of 1.45

Just so you know, measured normalized RNA/DNA level without ligand (log10) for `CCCCGU` came out at 1.76

`CCUGCU` yielded normalized RNA/DNA level without ligand (log10) of 1.7

response.value for `UCAGUA` (field: normalized RNA/DNA level without ligand (log10)) = 1.33

In plain terms, `GCUUCC` has a documented normalized RNA/DNA level without ligand (log10) of 1.72

normalized RNA/DNA level without ligand (log10) reading for `GUCCUC` : 1.75

Sample `UAACGU` ; normalized RNA/DNA level without ligand (log10) observed: 1.51

Looking up `GGUCCG` , I see its normalized RNA/DNA level without ligand (log10) listed as 1.9

The variant `GACAAC` showed normalized RNA/DNA level without ligand (log10) equal to 1.63

The variant listed as `UGGCUA` shows normalized RNA/DNA level without ligand (log10) equal to 1.72

Briefly, normalized RNA/DNA level without ligand (log10) measured for `UUAGCC` : 1.76

The recorded normalized RNA/DNA level without ligand (log10) for `GCUAAG` is 1.49

Looking up `UAGUUU` , I found its normalized RNA/DNA level without ligand (log10) recorded as 1.68

For this variant ( `CGUGCG` ), measured normalized RNA/DNA level without ligand (log10) is 1.8

Noted for `UUUAGC` : its normalized RNA/DNA level without ligand (log10) reads 1.76

Item: `UACAGA` | normalized RNA/DNA level without ligand (log10): 1.61

Documented normalized RNA/DNA level without ligand (log10) of `AGUUCA` : 1.62

The recorded normalized RNA/DNA level without ligand (log10) for `GGUCCA` is 1.78

Documented normalized RNA/DNA level without ligand (log10) of `GUAAAG` : 1.55

Measured normalized RNA/DNA level without ligand (log10), `UCGAAU` : 1.45

Reported normalized RNA/DNA level without ligand (log10) of `GUGAUU` : 1.62

Data point: `CCUGGU` ; normalized RNA/DNA level without ligand (log10) = 1.67

For `CCAGGG` the variant record lists normalized RNA/DNA level without ligand (log10) as 1.52

Consider `CUACUA` . Its measured normalized RNA/DNA level without ligand (log10) is 1.47

`GACUUA` has a reported normalized RNA/DNA level without ligand (log10) of 1.58

What the record says about `UACGAG` : normalized RNA/DNA level without ligand (log10) is 1.67

The variant `GUAUAU` showed normalized RNA/DNA level without ligand (log10) equal to 1.6

`GCCGAU` has a reported normalized RNA/DNA level without ligand (log10) of 1.55

For record `AACUUC` the listed normalized RNA/DNA level without ligand (log10) is 1.71

The reported value for `ACAUUC` in terms of normalized RNA/DNA level without ligand (log10) is 1.6

Reported normalized RNA/DNA level without ligand (log10) for `UACCGC` was 1.73

Summary for this variant, `UGACUC` : normalized RNA/DNA level without ligand (log10) is 1.73

Consider `UAUAAA` . Its measured normalized RNA/DNA level without ligand (log10) is 1.66

The reported value for `UUAACG` in terms of normalized RNA/DNA level without ligand (log10) is 1.81

Measured normalized RNA/DNA level without ligand (log10) of `UGAGAG` : 1.69

The reported value for `UACACC` in terms of normalized RNA/DNA level without ligand (log10) is 1.67

// sample `AGAGUC` , its normalized RNA/DNA level without ligand (log10) was 1.6

The variant listed as `UGCGGU` shows normalized RNA/DNA level without ligand (log10) equal to 1.63

# normalized RNA/DNA level without ligand (log10) (variant: `CGAUGC` ) is 1.72

Sure, the documented normalized RNA/DNA level without ligand (log10) for `AACUAA` is 1.51

Value of measured normalized RNA/DNA level without ligand (log10) for the entry `AUUAGA` : 1.52

normalized RNA/DNA level without ligand (log10) reading for `GUAUAG` : 1.56

Record `ACAGUU` . Reported normalized RNA/DNA level without ligand (log10): 1.32

So for `UGGGGC` , the logged normalized RNA/DNA level without ligand (log10) turned out to be 1.77

Taken from the supplement of paper PMC6757056.
